- Assay comment: Fraction unbound in human plasma
- Type: ADME, cell-free

Sample smiles | fraction unbound
O=C(NCc1ncc(C(F)(F)F)cc1Cl)c1ccc2c(c1)C1(CCS(=O)(=O)CC1)[C@H](C1CC1)N2S(=O)(=O)c1ccc(F)cc1 | 0.014

---

- Assay comment: Maximum oral bioavailability in dog hepatocytes
- Type: ADME, Canis lupus familiaris, Hepatocyte
- Reported conditions: read-out: Fmax

Sample smiles | Result unit | Fh
O=C(NCc1ncc(C(F)(F)F)cc1Cl)c1ccc2c(c1)C1(CCS(=O)(=O)CC1)[C@H](C1CC1)N2S(=O)(=O)c1ccc(F)cc1 | % | 65

---

- Study target: UniProtKB P30968
- Assay comment: Antagonist activity at human GnRH receptor expressed in CHO-K1 cells assessed as inhibition of buserelin-induced response preincubated for 20 mins followed by buserelin addition and measured after 60 mins by TR-FRET assay
- Format: cell-based
Quick reference: IC50 of the listed items.
Measurement kind: IC50 (nM)

Compound | Result unit | Cmp | Measured result
CC(=O)N1CCC2(CC1)CN(S(=O)(=O)c1ccc(F)cc1)c1ccc(C(=O)NCc3ccccc3Cl)cc12 | nM | = | 1770
N=S1(=O)CCC2(CC1)c1cc(NC(=O)c3cccnc3)ccc1N(S(=O)(=O)c1ccc(F)cc1)C2C1CC1 (stereo in doubt; form 1) | nM | = | 58.5
COc1ccc(S(=O)(=O)N2c3ccc(C(=O)NCc4ccccc4Cl)cc3C3(CCN(C(C)=O)CC3)C2C)cc1 (stereo in doubt; form 3) | nM | = | 28
COc1ccc(S(=O)(=O)N2c3ccc(C(=O)NCc4ccccc4Cl)cc3C(C)(C)C2C)cc1 (stereo in doubt; 1a) | nM | = | 1500
O=C(NCc1ccc(C(F)(F)F)cn1)c1ccc2c(c1)C1(CCS(=O)(=O)CC1)C(C1CC1)N2S(=O)(=O)c1ccc(F)cc1 (racemic) | nM | = | 415
O=C(Nc1ccc2c(c1)C1(CCC(O)(C(F)(F)F)CC1)C(C1CC1)N2S(=O)(=O)c1ccc(F)cc1)c1cccnc1 (stereo not drawn) | nM | = | 228
O=C(Nc1ccc2c(c1)C1(CCSCC1)C(C1CC1)N2S(=O)(=O)c1ccc(F)cc1)c1cccnc1 (racemic) | nM | = | 132
COc1ccc(S(=O)(=O)N2c3ccc(C(=O)NCc4ccccc4Cl)cc3C3(CCN(C(C)=O)CC3)C2C)cc1 (stereo in doubt; form 1) | nM | ≥ | 20000
O=C(NCc1ncc(C(F)(F)F)cc1Cl)c1ccc2c(c1)C1(CCS(=O)(=O)CC1)C(C1CC1)N2S(=O)(=O)c1ccc(F)cc1 (racemic) | nM | = | 44
O=C(NCc1ncc(C(F)(F)F)cc1F)c1ccc2c(c1)C1(CCS(=O)(=O)CC1)C(C1CC1)N2S(=O)(=O)c1ccc(F)cc1 (racemic) | nM | = | 246
CC(=O)N1CCC2(CC1)c1cc(C(=O)NCc3ccccc3Cl)ccc1N(S(=O)(=O)c1ccc(F)cc1)C2C (stereo in doubt; form 1) | nM | > | 20000
COc1ccc(S(=O)(=O)N2c3ccc(C(=O)NCc4ccccc4Cl)cc3C3(CCN(C(C)=O)CC3)C2C)cc1 (stereo in doubt; form 2) | nM | = | 99
COc1ccc(S(=O)(=O)N2c3ccc(C(=O)NCc4ccccc4Cl)cc3C(C)(C)C2C)cc1 (racemic) | nM | = | 6620
CC(=O)N1CCC2(CC1)c1cc(NC(=O)c3cccnc3)ccc1N(S(=O)(=O)c1ccc(F)cc1)C2C1CC1 (racemic) | nM | = | 68
CC(=O)N1CCC2(CC1)c1cc(C(=O)NC3(c4ccc(Cl)cc4)CC3)ccc1N(S(=O)(=O)c1ccc(F)cc1)C2C1CC1 (racemic) | nM | = | 92
CC1N(S(=O)(=O)c2ccc(F)cc2)c2ccc(NC(=O)c3cccnc3)cc2C12CCOCC2 (racemic) | nM | = | 140
CC(=O)N1CCC2(CC1)c1cc(C(=O)NCc3ccccc3Cl)ccc1N(S(=O)(=O)c1ccc(C(F)(F)F)cc1)C2C (racemic) | nM | = | 13800
CC(=O)N1CCC2(CC1)c1cc(C(=O)NCc3ccccc3)ccc1N(S(=O)(=O)c1ccc(F)cc1)C2C1CC1 (racemic) | nM | = | 553
O=C(Nc1ccc2c(c1)C1(CCC(O)CC1)C(C1CC1)N2S(=O)(=O)c1ccc(F)cc1)c1cccnc1 (stereo not drawn) | nM | = | 61
CC(=O)N1CCC2(CC1)c1cc(C(=O)NC3(c4ccccc4Cl)CC3)ccc1N(S(=O)(=O)c1ccc(F)cc1)C2C1CC1 (racemic) | nM | = | 1050
CC(=O)N1CCC2(CC1)c1cc(C(=O)NCc3ccccc3Cl)ccc1N(S(C)(=O)=O)C2C (racemic) | nM | = | 18100
CC(=O)N1CCC2(CC1)c1cc(C(=O)NCc3ccccc3Cl)ccc1N(S(=O)(=O)c1ccccc1)C2C (racemic) | nM | = | 131
CC(=O)N1CCC2(CC1)c1cc(C(=O)NCc3ccccc3Cl)ccc1N(C(=O)c1ccc(F)cc1)C2C (racemic) | nM | > | 20000
CC(=O)N1CCC2(CC1)c1cc(C(=O)NCc3ccccc3Cl)ccc1N(S(=O)(=O)c1ccc(F)cc1)C2CCO (racemic) | nM | = | 1150
CC(=O)N1CCC2(CC1)c1cc(C(=O)NCc3ccc(F)cc3Cl)ccc1N(S(=O)(=O)c1ccc(F)cc1)C2C1CC1 (racemic) | nM | = | 77
CC(=O)N1CCC2(CC1)c1cc(C(=O)NCc3ccccc3Cl)ccc1N(S(=O)(=O)c1ccc(F)cc1)C2C1CC1 (racemic) | nM | = | 47
CC(=O)N1CCC2(CC1)c1cc(C(=O)NCc3ccccc3Cl)ccc1N(S(=O)(=O)c1cccnc1)C2C (racemic) | nM | = | 269
CC(=O)N1CCC2(CC1)c1cc(C(=O)NCc3ccccc3Cl)ccc1N(Cc1ccc(F)cc1)C2C (racemic) | nM | = | 18200

---

- Assay comment: Aqueous solubility of compound at pH 6.5 incubated for 24 hrs under shaking condition by HPLC-MS/MS analysis
- Type: physicochemical
- Reported conditions: aqueous solution
Quick reference: solubility at 24 h of the listed items.

Molecule | solubility at 24 h
O=C(NCc1ncc(C(F)(F)F)cc1Cl)c1ccc2c(c1)C1(CCS(=O)(=O)CC1)[C@H](C1CC1)N2S(=O)(=O)c1ccc(F)cc1 [BAY-784] | 0.0071 mg/mL
CC1N(S(=O)(=O)c2ccc(F)cc2)c2ccc(C(=O)NCc3ccccc3Cl)cc2C12CCNCC2 (stereo in doubt; 3a) | 0.271 mg/mL

---

- Assay comment: Maximum oral bioavailability in cynomolgus monkey liver microsomes based well stirred liver model
- Format: ADME, Macaca fascicularis, Microsome
- Reported conditions: read-out: Fmax

Compound | Fh [%]
O=C(NCc1ncc(C(F)(F)F)cc1Cl)c1ccc2c(c1)C1(CCS(=O)(=O)CC1)[C@H](C1CC1)N2S(=O)(=O)c1ccc(F)cc1 [BAY-784] | 81

---

Quick reference: IC50 of the listed items.
- Study target: Gonadotropin-releasing hormone receptor (Homo sapiens, UniProt P30968)
- Sequence (P30968 whole entry): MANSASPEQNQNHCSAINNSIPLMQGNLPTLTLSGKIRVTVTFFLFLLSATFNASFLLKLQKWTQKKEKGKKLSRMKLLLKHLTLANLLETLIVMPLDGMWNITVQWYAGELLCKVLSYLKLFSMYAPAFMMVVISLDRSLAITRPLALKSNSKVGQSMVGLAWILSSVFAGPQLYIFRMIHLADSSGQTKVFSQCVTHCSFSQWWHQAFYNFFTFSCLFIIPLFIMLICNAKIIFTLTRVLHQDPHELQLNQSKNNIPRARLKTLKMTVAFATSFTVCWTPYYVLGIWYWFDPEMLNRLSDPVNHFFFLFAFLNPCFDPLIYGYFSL
- Assay comment: Antagonist activity at human GnRH receptor expressed in CHO-K1 cells assessed as inhibition of buserelin-induced response preincubated for 20 mins followed by buserelin addition and measured after 60 mins by TR-FRET assay
- Format: cell-based

Compound | IC50
CC1N(S(=O)(=O)c2ccccc2)c2ccc(C(=O)NCc3ccccc3Cl)cc2C1(C)C (racemic) | 1410 nM
CC(=O)N1CCC2(CC1)c1cc(NC(=O)c3cccc(F)c3)ccc1N(S(=O)(=O)c1ccc(F)cc1)C2C1CC1 (racemic) | 18 nM
O=C(Nc1ccc2c(c1)C1(CCS(=O)(=O)CC1)C(C1CC1)N2S(=O)(=O)c1ccc(F)cc1)c1cccnc1 (centres undefined) | 45 nM
CC(=O)N1CCC2(CC1)c1cc(C(=O)NCc3ccccc3Cl)ccc1N(S(=O)(=O)c1ccc(F)cc1)C2C (racemic) | 90 nM

---

- Assay comment: Clearance in Wistar rat at 0.5 mg/kg, iv by LC-MS/MS analysis
- Format: ADME, organism-based
- Reported conditions: Wistar, in vivo

Compound | clearance, mL/min/kg
O=C(NCc1ncccc1Cl)c1ccc2c(c1)C1(CCS(=O)(=O)CC1)C(C1CC1)N2S(=O)(=O)c1ccc(F)cc1 (stereo in doubt) | 30
CC1N(S(=O)(=O)c2ccc(F)cc2)c2ccc(C(=O)NCc3ccccc3Cl)cc2C12CCNCC2 (stereo in doubt) | 23.3
O=C(NCc1ncc(C(F)(F)F)cc1Cl)c1ccc2c(c1)C1(CCS(=O)(=O)CC1)[C@H](C1CC1)N2S(=O)(=O)c1ccc(F)cc1 [BAY-784] | 9
CC(=O)N1CCC2(CC1)c1cc(C(=O)NCc3ncccc3Cl)ccc1N(S(=O)(=O)c1ccc(F)cc1)C2C (single isomer, unassigned) | 28.3
